Exercise: state measured binding signal (plate reader) for each of the binders provided.
test_target: T1, oligopeptide GIFATYPSGHLDM (SEQ ID NO: 107)
T1 construct: Synthetic peptide, part of Loop C of AQP3
T1 peptide: GIFATYPSGHLDM
assay_text: ELISA on coated peptide
Keep it simple and answer with nothing but the number.

Endpoint output: binding signal (plate reader) of BC-H9 (IgG) (antibody, V domains shown, also called anti AQP3 antibody BC-H9) VH: QSLEESGGRLVTPGTPLTLTCTVSGFSLYTYAMGWVRQAPGKGLEWIGIINNDGISSTWYASWVKGRFTISKTSTTMDLKMTSLTTEDTATYFCARGGTSGYDIWGPGTLVTVSL VL: AQGLTQTPSPVSAAVGGTVTINCQSGPSVYKNYLSWYQQKAGQPPKLLIYGASTLASGVPSRFKGSGSGTQFTLTISDVQCDDAATYYCAGGYRGSSDIFAFGGGTEVVVK . Value?
3.8

Could you tell me which binding signal (plate reader) is on file for SC-F8 (IgG) (antibody, V domains shown, also called anti AQP3 antibody SC-F8) VH: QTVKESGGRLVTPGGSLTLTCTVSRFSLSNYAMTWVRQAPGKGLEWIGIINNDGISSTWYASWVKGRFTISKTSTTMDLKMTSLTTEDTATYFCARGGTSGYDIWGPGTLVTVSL VL: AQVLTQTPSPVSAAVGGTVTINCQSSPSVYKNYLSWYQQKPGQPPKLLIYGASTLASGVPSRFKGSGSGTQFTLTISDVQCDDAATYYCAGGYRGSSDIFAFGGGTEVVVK ?
3.86

Consider the binder BC-B10 (IgG) (antibody, V domains shown, also called anti AQP3 antibody BC-B10) VH: QSVEESGGRLVTPGAPLTLTCTVSRFSLSSYAMTWVRQAPGKGLEWIGIINNDVISSTWYASWVKGRFTISKTSTTMELKMTSLTTEDTATYFCARGGTSGYDIWGPGTLVTVSS VL: AIKMTQTPSPVSAAVGGTVTINCQSSPSVYKNYLSWYQQKPGQPPKLLIYGASTLASGVPSRFKGSGSGTQFTLTISDVQCDDAATYYCAGGYIGSRDIFSFGGGTEVVVK and give its measured binding signal (plate reader).
3.88
